# target-system: T1, recombinant biotinylated human PAR2 extracellular domain (residues 1-75), N-terminal AviTag, C-terminal Flag … (human, UniProt P55085 26-75, biotin on the AviTag (enzymatic biotinylation))
# T1 construct: also called Bio-human-PAR2 ECD; human PAR2 ECD; not shown: N-terminal AviTag (Avidity LLC); C-terminal Flag and poly Histidine tags
# T1 sequence (P55085 26-75): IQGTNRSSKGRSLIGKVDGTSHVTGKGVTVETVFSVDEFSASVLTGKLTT
# measurement-protocol: HTRF competition with Par0067 IgG, pH 7.4, scFv
measure-name: pIC50
Keep it numeric: pIC50 is minus log10 of the concentration in mol/L.

PaB670066 scFv (scFv, V domains shown, purified scFv; also called ZZ1KX6-D05) VH: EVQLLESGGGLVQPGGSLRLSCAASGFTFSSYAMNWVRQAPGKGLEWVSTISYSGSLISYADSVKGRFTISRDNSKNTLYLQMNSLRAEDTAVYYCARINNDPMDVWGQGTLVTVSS VL: SIELTQPPSVSVSPGQTASITCSGDNLGKKYVQWYQQKPGQSPVLVIYDDSNRPSGIPERFSGSNSGNTATLTISGTQAMDEADYYCHHWHGNHHTGETNHFGGGTKLTVL ... 7.28
PaB670082 scFv (scFv, V domains shown, purified scFv; also called ZZ1OZA-D02) VH: EVQLLESGGGLVQPGGSLRLSCAASGFTFSSYAMNWVRQAPGKGLEWVSTISHSHSLISYAHSVHGRFTISRDNSKNTLYLQMNSLRAEDTAVYYCARINNDPMDVWGQGTLVTVSS VL: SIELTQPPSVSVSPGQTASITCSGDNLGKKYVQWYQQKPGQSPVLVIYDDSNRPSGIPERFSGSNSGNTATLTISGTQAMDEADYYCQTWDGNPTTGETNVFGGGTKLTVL ... 7.60
PaB670105 scFv (scFv, V domains shown, purified scFv; also called ZZ1RD0-D01) VH: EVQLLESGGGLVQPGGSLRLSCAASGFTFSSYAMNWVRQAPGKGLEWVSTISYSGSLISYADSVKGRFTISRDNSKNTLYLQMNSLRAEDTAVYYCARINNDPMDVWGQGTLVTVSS VL: SIELTQPPSVSVSPGQTASITCSGDNLGKKYVQWYQQKPGQSPVLVIYDDSNRPSGIPERFSGSNSGNTATLTISGTQAMDEADYYCQHWHGNPHTGEHNHFGGGTKLTVL ... 7.13

// recorded pIC50 for PaB670091 scFv (scFv, V domains shown, purified scFv; also called ZZ1ODR-G02) VH: EVQLLESGGGLVQPGGSLRLSCAASGFTFSSYAMNWVRQAPGKGLEWVSTISHSGHLIHHHHSVKGRFTISRDNSKNTLYLQMNSLRAEDTAVYYCARINNDPMDVWGQGTLVTVSS VL: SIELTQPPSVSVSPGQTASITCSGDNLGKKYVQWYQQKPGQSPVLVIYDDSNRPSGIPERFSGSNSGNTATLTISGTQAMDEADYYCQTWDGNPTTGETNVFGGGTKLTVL : 7.60

Noted for PaB670010 scFv (scFv, V domains shown, purified scFv; also called ZZ1DRB-B08) VH: EVQLLESGGGLVQPGGSLRLSCAASGFTFSSYAMNWVRQAPGKGLEWVSTISYSGSLIHYADSVKGRFTISRDNSKNTLYLQMNSLRAEDTAVYYCARINNDPMDVWGQGTLVTVSS VL: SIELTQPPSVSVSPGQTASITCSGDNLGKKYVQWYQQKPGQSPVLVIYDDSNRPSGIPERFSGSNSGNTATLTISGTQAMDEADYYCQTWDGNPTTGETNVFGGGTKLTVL : its pIC50 reads 7.81
